Give measured log10 LD50 for each item. Keep answers brief.
Test system: Artemia salina
Assay: Toxicity against Artemia salina
Format: organism-based
Details: in vivo
Please note: log10 values; quantity LD50; unit ppm.

Some molecules with recorded log10 LD50:
# molecule, obs value
data = [
    ("C[C@H]1CCCc2c(O)c(O)c3c(c21)COC(=O)C3(C)O (mixture of isomers)", 2.36),
    ("COc1c2c(c(C)c3c1OC(=O)[C@@]3(C)O)[C@@H](C)CCC2", 1.72),
    ("Cc1coc2c(O)c3c(c(Cc4oc5c(O)c6c(c(C)c5c4C)[C@@H](C)CCC6)c12)[C@@H](C)CCC3", 2.36),
    ("Cc1coc2c1C(C)(O)C1=C(CCC[C@@H]1C)C2=O (mixture of isomers) [cacalone/epi-cacalone]", 2.43),
    ("C/C=C\\C(=O)O[C@@H]1c2c(C)coc2C(=O)C2=CCC[C@H](C)[C@]21C", 1.34),
]

# next molecule below
Ask: # query: log10 LD50 | item Cc1coc2c(O)c3c(c(C)c12)[C@@H](C)CCC3 | system: Artemia salina
Reply: 1.08
